# reported inhibition; entries follow
Biological target: NAD kinase (Mycobacterium tuberculosis) (UniProt P9WHV7)
Sequence (whole entry): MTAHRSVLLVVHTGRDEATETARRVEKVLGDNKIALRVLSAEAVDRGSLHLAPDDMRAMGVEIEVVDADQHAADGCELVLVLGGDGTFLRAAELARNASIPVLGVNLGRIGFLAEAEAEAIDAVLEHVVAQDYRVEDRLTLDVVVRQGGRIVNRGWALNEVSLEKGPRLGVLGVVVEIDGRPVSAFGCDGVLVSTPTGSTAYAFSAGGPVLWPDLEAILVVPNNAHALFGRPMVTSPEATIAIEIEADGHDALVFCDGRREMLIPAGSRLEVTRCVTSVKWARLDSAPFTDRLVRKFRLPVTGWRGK
Test: Inhibition of Mycobacterium tuberculosis NAD kinase at 1 mM
Assay Metric: inhibition

Smiles Representation | Tested System | Value Reported
O=C(CBr)c1ccncc1 | NAD kinase (Mycobacterium tuberculosis) (UniProt P9WHV7) | 40%
O=C(CBr)c1cccnc1 | NAD kinase (Mycobacterium tuberculosis) (UniProt P9WHV7) | 30%
O=C(CBr)c1ccccn1 | NAD kinase (Mycobacterium tuberculosis) (UniProt P9WHV7) | 63%
NC(=O)c1ccc[n+]([C@@H]2O[C@H](COP(=O)(O)OP(=O)(O)OC[C@H]3O[C@@H](n4cnc5c(N)ncnc54)[C@H](F)[C@@H]3O)[C@@H](O)[C@H]2O)c1 | NAD kinase (Mycobacterium tuberculosis) (UniProt P9WHV7) | < 10%
NC(=O)c1ccc[n+]([C@@H]2O[C@H](COP(=O)(O)OP(=O)(O)OC[C@H]3O[C@@H](n4cnc5c(N)ncnc54)[C@@H](F)[C@@H]3O)[C@@H](O)[C@H]2O)c1 | NAD kinase (Mycobacterium tuberculosis) (UniProt P9WHV7) | < 10%
NC(=O)c1cccc([C@@H]2O[C@H](COP(=O)(O)OP(=O)(O)OC[C@H]3O[C@@H](n4cnc5c(N)ncnc54)[C@H](O)[C@@H]3O)[C@@H](O)[C@H]2O)c1 | NAD kinase (Mycobacterium tuberculosis) (UniProt P9WHV7) | < 10%
NC(=O)c1ccc[n+]([C@@H]2O[C@H](COP(=O)(O)OP(=O)(O)OC[C@H]3O[C@@H](n4cnc5c(N)ncnc54)[C@@H](O)[C@@H]3O)[C@@H](O)[C@H]2O)c1 | NAD kinase (Mycobacterium tuberculosis) (UniProt P9WHV7) | 40%
